We begin with a simple list: items and their reported IC50.
system tested: human neutrophil elastase (HNE) (Homo sapiens)
Sequence (P08246 30-247 limits assumed): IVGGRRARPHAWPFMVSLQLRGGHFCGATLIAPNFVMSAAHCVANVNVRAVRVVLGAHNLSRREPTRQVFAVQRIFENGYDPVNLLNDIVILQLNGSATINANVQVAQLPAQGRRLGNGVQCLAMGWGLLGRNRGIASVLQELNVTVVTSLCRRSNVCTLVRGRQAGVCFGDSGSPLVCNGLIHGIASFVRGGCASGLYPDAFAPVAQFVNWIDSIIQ
assay comment: HNE enzyme activity assay
condition info: human leukocyte elastase, substrate MeOSuc-Ala-Ala-Pro-Val-AMC 100 μM, 25° C. for 30 minutes, fluorescence; read-out: HNE inhibition

Give the reported IC50 for Cc1c(-c2ccnn2-c2ccc(C#N)cc2)cn2nc(NC(=O)NC3CCN(S(C)(=O)=O)CC3)nc2c1-c1cccc(C(F)(F)F)c1 (system: human neutrophil elastase (HNE) (Homo sapiens)). < 0.02 µM

Give the reported IC50 for Cc1c(-c2ccnn2-c2ccc(C#N)cc2)cn2nc(Cc3ccc(S(C)(=O)=O)cc3)nc2c1-c1cccc(C(F)(F)F)c1 (system: human neutrophil elastase (HNE) (Homo sapiens)). 0.1 to 0.5 µM

Give the reported IC50 for Cc1c(-c2ccnn2-c2ccc(C#N)cc2)cn2nc(NC(=O)NC3CCN(C)CC3)nc2c1-c1cccc(C(F)(F)F)c1 (system: human neutrophil elastase (HNE) (Homo sapiens)). < 0.02 µM

Give the reported IC50 for COc1nc2c(-c3cccc(C(F)(F)F)c3)c(C)c(-c3ccnn3-c3ccc(C#N)cc3)cn2n1 (system: human neutrophil elastase (HNE) (Homo sapiens)). 0.1 to 0.5 µM

Give the reported IC50 for CC(=O)N1CCC(NC(=O)Nc2nc3c(-c4cccc(C(F)(F)F)c4)c(C)c(-c4ccnn4-c4ccc(C#N)cc4)cn3n2)CC1 (system: human neutrophil elastase (HNE) (Homo sapiens)). < 0.02 µM

Give the reported IC50 for Cc1c(-c2ccnn2-c2ccc(C#N)cc2)cn2c(=O)n(CC(=O)N(C)C)nc2c1-c1cccc(C(F)(F)F)c1 (system: human neutrophil elastase (HNE) (Homo sapiens)). > 0.5 µM

Give the reported IC50 for Cc1c(-c2ccnn2-c2ccc(C#N)cc2)cn2c(=O)n(Cc3ccc(S(C)(=O)=O)cc3)nc2c1-c1cccc(C(F)(F)F)c1 (system: human neutrophil elastase (HNE) (Homo sapiens)). 0.1 to 0.5 µM

Give the reported IC50 for Cc1c(-c2ccnn2-c2ccc(C#N)cc2)cn2nc(NCCCN(C)C)nc2c1-c1cccc(C(F)(F)F)c1 (system: human neutrophil elastase (HNE) (Homo sapiens)). < 0.02 µM

###

system tested: human neutrophil elastase (HNE) (Homo sapiens)
assay comment: HNE enzyme activity assay
condition info: human leukocyte elastase, substrate MeOSuc-Ala-Ala-Pro-Val-AMC 100 μM, 25° C. for 30 minutes, fluorescence; read-out: HNE inhibition
Structures can show the parent of a compound that is named as a salt.
measurement kind: IC50

compound=Cc1c(-c2ccnn2-c2ccc(C#N)cc2)cn2nc(NC(=O)CCCN(C)C)nc2c1-c1cccc(C(F)(F)F)c1 reading="< 20 nM"
compound=Cc1c(-c2ccnn2-c2ccc(C#N)cc2)cn2nc(NC(=O)CN3CCN(C)CC3)nc2c1-c1cccc(C(F)(F)F)c1 reading="< 20 nM"
compound=Cc1c(-c2ccnn2-c2ccc(C#N)cc2)cn2nc(NCCCCO)nc2c1-c1cccc(C(F)(F)F)c1 reading="< 20 nM"
compound=CNC(=O)Cn1nc2c(-c3cccc(C(F)(F)F)c3)c(C)c(-c3ccnn3-c3ccc(C#N)cc3)cn2c1=O reading="100 to 500 nM"
compound=Cc1c(-c2ccnn2-c2ccc(C#N)cc2)cn2nc(NCc3ccc(S(C)(=O)=O)cc3)nc2c1-c1cccc(C(F)(F)F)c1 reading="< 20 nM"

Give the reported IC50 for CC(=O)Nc1nc2c(-c3cccc(C(F)(F)F)c3)c(C)c(-c3ccnn3-c3ccc(C#N)cc3F)cn2n1 (system: human neutrophil elastase (HNE) (Homo sapiens)). < 20 nM

Give the reported IC50 for Cc1c(-c2ccnn2-c2ccc(C#N)cc2)cn2c(=O)[nH]nc2c1-c1cccc(C(F)(F)F)c1 (system: human neutrophil elastase (HNE) (Homo sapiens)). < 20 nM

Give the reported IC50 for Cc1cn2cc(-c3ccnn3-c3ccc(C#N)cc3)c(C)c(-c3cccc(C(F)(F)F)c3)c2n1 (system: human neutrophil elastase (HNE) (Homo sapiens)). > 500 nM

Give the reported IC50 for Cc1c(-c2ccnn2-c2ccc(C#N)cc2)cn2nc(NCCCC(=O)N(C)CCN(C)C)nc2c1-c1cccc(C(F)(F)F)c1 [Example 60, formate salt] (system: human neutrophil elastase (HNE) (Homo sapiens)). < 20 nM

Give the reported IC50 for Cc1c(-c2ccnn2-c2ccc(C#N)cc2)cn2nc(N)nc2c1-c1cccc(C(F)(F)F)c1 (system: human neutrophil elastase (HNE) (Homo sapiens)). 20 to 100 nM
